# reported TGI; entries follow
System: CAKI-1 renal
experiment_notes: NCI tumour cell line growth inhibition, 48 h

Some compounds with recorded TGI:
{"compound": "NC(=S)N1N=C2c3ccccc3CC[C@@H]2[C@@H]1c1ccccc1", "result": "42.2 µM"}
{"compound": "COC1(C)CP(=O)(OC(C)C)CC(C)=C1Cl (configuration not stated)", "result": "36.8 µM"}
{"compound": "Cc1ccc(/C(Cl)=C/C=C(C#N)C#N)cc1", "result": "14.4 µM"}
{"compound": "Cc1cc2c(cc1C(=O)CCC(=O)O)CC1(C2)Cc2cc(C)c(C(=O)CCC(=O)O)cc2C1", "result": "> 100 µM"}
{"compound": "Cc1ccc(C(=O)NC(C)C)cc1-c1ccc(C(=O)NCC2CC2)cc1", "result": "> 25 µM"}
{"compound": "Cc1cccc(C(C)C)c1NC(=O)/C(Cc1c([N+](=O)[O-])cccc1[N+](=O)[O-])=N/NC(=O)CC#N", "result": "> 100 µM"}

The compound CC(C)(C)/C(=N\Nc1nc2ccccc2[nH]1)c1ccccn1 on CAKI-1 renal: TGI was > 100 µM

The compound COc1ccc(NC(=O)CC(=O)N/N=C/c2ccc(N(CCC#N)S(C)(=O)=O)cc2)cc1 on CAKI-1 renal: TGI was > 100 µM

The compound Cc1cc2cc3c(cc2c(-c2ccc([N+](=O)[O-])cc2)n1)OCO3 on CAKI-1 renal: TGI was > 100 µM

----------
Test system: KM12 colon
experiment_notes: NCI tumour cell line growth inhibition, 48 h
quantity_name: GI50

{"smiles_str": "N#CC(C#N)=C1Nc2ccccc2S1", "result": "34.8 µM"}
{"smiles_str": "Cc1ccc2c(c1)Sc1c(ccc3ccccc13)N2", "result": "48.7 µM"}

The record that follows has no GI50 shown yet.
Please fill in: GI50 reported for CCCCCCCC[C@@H](O)CC(=O)N[C@@H](CC(N)=O)C(=O)N[C@@H](CCC(N)=O)C(=O)N[C@@H](CC(=O)c1cc(C)cc(O)c1C(=O)c1c(O)cccc1O)CC(C)C = 0.971 µM

----------
Test system: NCI-H460 lung
experiment_notes: NCI tumour cell line growth inhibition, 48 h
quantity_name: TGI

Some molecules with recorded TGI:
{"molecule": "O=C1NC(=O)C(CCC(=O)c2ccc3ccccc3c2)C(=O)N1", "system_tested": "NCI-H460 lung", "TGI": "> 100 µM"}
{"molecule": "Cc1ccc(C(=O)NC(C)C)cc1-c1ccc(C(=O)NCC2CC2)cc1", "system_tested": "NCI-H460 lung", "TGI": "> 25 µM"}

Please fill in: TGI reported for O=C1CSSCC(=O)Nc2ccccc2N1 = > 100 µM

Please fill in: TGI reported for CC[C@@]1(c2ccccc2)C2=C(CC(C)(C)CC2=O)Nc2[nH]ncc21 = > 100 µM

Please fill in: TGI reported for CC(=O)Oc1cc(Cl)c(C)c2c1[C@H]1CC[C@]3(C)[C@@H](OC(C)=O)CC[C@H]3[C@@H]1CC2 = > 100 µM

Please fill in: TGI reported for CC1(C)C2CCC(CN)(C2)C1N (stereo not given) = > 100 µM

Please fill in: TGI reported for COc1cc[nH]c1/C=C1\C(=O)Nc2ccc(F)c(C#CC3(O)CCNCC3)c21 = 0.747 µM

Please fill in: TGI reported for C[N+]1=C(/C=C/c2ccc(O)c3ncccc23)C(C)(C)c2ccccc21 = 3.8 µM

Please fill in: TGI reported for NC1=NC(c2ccccc2)CC(c2cc(Cl)ccc2O)=N1 (stereo not given) = 29.3 µM

Please fill in: TGI reported for Cc1c(C(=O)C/C(=N/NC(=O)C[N+](C)(C)C)C(=O)Nc2ccc(Cl)cc2)[n+](=O)c2ccccc2n1O = > 100 µM

----------
Tested on: SR leukemia
experiment_notes: NCI tumour cell line growth inhibition, 48 h
quantity_name: TGI

Some molecules with recorded TGI:
{"molecule": "O=c1[nH]c(=O)n(CCOc2ccccc2)cc1Nc1ccccc1", "system_tested": "SR leukemia", "result": "> 100 µM"}
{"molecule": "O=c1[nH]nc(-c2ccccc2)n1-c1ccncc1", "system_tested": "SR leukemia", "result": "> 100 µM"}
{"molecule": "[Cl-].[Rh+3].c1cnc2c(c1)ccc1cccnc12.c1cnc2c(c1)ccc1cccnc12.c1cnc2c(c1)ccc1cccnc12", "system_tested": "SR leukemia", "result": "> 100 µM"}
{"molecule": "Nc1cccnc1NCC1(CO)CCCC1", "system_tested": "SR leukemia", "result": "> 100 µM"}
{"molecule": "N#CC(C#N)=C1Nc2ccccc2S1", "system_tested": "SR leukemia", "result": "51.9 µM"}
{"molecule": "NC12CC3CC(C1)CC(C(=O)O)(C3)C2", "system_tested": "SR leukemia", "result": "> 100 µM"}

The record that follows has no TGI shown yet.
Please fill in: TGI reported for O=C(O)CCNC1CCCCC1 = > 100 µM

----------
Test system: M14 melanoma
experiment_notes: NCI tumour cell line growth inhibition, 48 h
# reported TGI; entries follow

Please fill in: TGI reported for O=C1CCC(N2C(=O)c3ccccc3C2=O)C(=O)N1CO (centres undefined) = > 100 µM

----------
System: ACHN renal
experiment_notes: NCI tumour cell line growth inhibition, 48 h
quantity_name: TGI

{"compound": "CC(=O)N(C(C)=O)n1c(Cc2ccc(Cl)cc2)n[nH]c1=O", "system_tested": "ACHN renal", "result": "> 100 µM"}
{"compound": "CN(CCC(=O)O)C1=Nc2ccc(Cl)cc2C(c2ccccc2)=[N+]([O-])C1", "system_tested": "ACHN renal", "result": "> 100 µM"}
{"compound": "CCCn1c(=S)sc2c1nc(C)n1c(Nc3ccccc3)nnc21", "system_tested": "ACHN renal", "result": "> 100 µM"}

The record that follows has no TGI shown yet.
The compound CC(=O)Oc1cc(Cl)c(C)c2c1[C@H]1CC[C@]3(C)[C@@H](OC(C)=O)CC[C@H]3[C@@H]1CC2 on ACHN renal: TGI was > 100 µM

----------
# reported TGI; entries follow
Test system: SF-295 CNS
experiment_notes: NCI tumour cell line growth inhibition, 48 h

{"molecule": "O=C(O)C1CCCN(CCc2c[nH]c3ccccc23)C1 (configuration not stated)", "TGI": "> 100 µM"}
{"molecule": "O=C1CSSCC(=O)Nc2ccccc2N1", "TGI": "> 100 µM"}
{"molecule": "N#CC12CNCC1CN=N2 (configuration not stated)", "TGI": "> 100 µM"}
{"molecule": "COc1ccc(CC2CCc3nc(N)nc(N)c3C2)cc1OC (configuration not stated)", "TGI": "> 41.4 µM"}
{"molecule": "O=C(CC1C(=O)NN(c2ccc(Br)cc2)C1=O)c1cc(O)ccc1O (configuration not stated)", "TGI": "29.7 µM"}
{"molecule": "COc1cc[nH]c1/C=C1\\C(=O)Nc2ccc(F)c(C#CC3(O)CCNCC3)c21", "TGI": "2.8 µM"}

The molecule C=C(C[C@](O)(C(=O)/C=C/c1ccc(Cl)cc1)C(=O)OC)c1ccccc1 on SF-295 CNS: TGI was 20.7 µM

The molecule O=C1c2cccc([N+](=O)[O-])c2C(=O)N1c1ncn[nH]1 on SF-295 CNS: TGI was > 100 µM

The molecule O=C(O)C(CS)Nc1c2ccccc2nc2ccccc12 (configuration not stated) on SF-295 CNS: TGI was > 100 µM

The molecule CC[C@@]1(c2ccccc2)C2=C(CC(C)(C)CC2=O)Nc2[nH]ncc21 on SF-295 CNS: TGI was > 100 µM

The molecule COc1ccc2nc3c(C(=O)NCCN(C)C)cccc3nc2c1 on SF-295 CNS: TGI was 39.1 µM

The molecule O=[N+]([O-])c1ccc(C=NC2CCCCC2)cc1 on SF-295 CNS: TGI was > 100 µM

----------
Tested on: SK-OV-3 ovarian
experiment_notes: NCI tumour cell line growth inhibition, 48 h; in the data active = GI50 below about 0.43 µM; inactive = the rest
Can you answer with just one of these options? True (active), False (inactive)

Qu. Dear all, I need the recorded test outcome for Nc1nc(N(Cc2ccccc2)c2ccccc2)c2cn[nH]c2n1 , thank you.
Ans. False

Qu. Dear all, I need the recorded test outcome for NC(=O)NS(=O)(=O)c1ccc(N2N=C(C(F)(F)F)CC2c2cc(C(F)(F)F)cc(C(F)(F)F)c2)cc1 (configuration not stated) , thank you.
Ans. False

Qu. Dear all, I need the recorded test outcome for CCCCCCCCn1ccc2cc(NC(=O)Cn3cc(CN4CCCC4)nn3)ccc21 , thank you.
Ans. False

Qu. Dear all, I need the recorded test outcome for Cc1ccc(C(=O)N(CCCN)C(c2oc3cc(Cl)ccc3c(=O)c2Cc2ccccc2)C(C)C)cc1 (configuration not stated) , thank you.
Ans. True
